# log10 of MIC per entry
Test system: Clostridioides difficile
Test: Minimum inhibitory concentration against Clostridium difficile ATCC 9689
Type: functional
// stored as log10 of MIC expressed in µg/mL

Some solved entries appear below for comparison.
{"compound": "CC(/C=C/C(O)=C1\\C(=O)CN(C)C1=O)=C\\C(C)C", "log10 of MIC": 1.49}
{"compound": "CN1CC(=O)\\C(=C(O)/C=C/C=C/c2ccc(N(C)C)cc2)C1=O", "log10 of MIC": 1.49}
{"compound": "CC(/C=C/C(=O)C1=C(O)CN(C)C1=O)=C\\C1CCCCO1 (centres undefined)", "log10 of MIC": 2.10}
{"compound": "CC(/C=C/C(=O)C1=C(O)CN(C)C1=O)=C\\c1cnc2ccccc2c1", "log10 of MIC": 0.30}
{"compound": "COCCOCc1ccc2ccccc2c1/C=C(C)/C=C/C(O)=C1\\C(=O)CN(C)C1=O", "log10 of MIC": 0.90}

*Q* Look at this compound and give its reported log10 of MIC. "CCCCCCCCCCC/C=C(C)/C=C/C(O)=C1\C(=O)CN(C)C1=O"
*A* 0.60

*Q* Check "COc1ccc(/C=C(C)/C=C/C(O)=C2\C(=O)CN(C)C2=O)c2ccccc12" too.
*A* 0.60

====

# inhibition per entry
Molecular target: DNA-directed RNA polymerase subunit beta (Escherichia coli K-12) (UniProt P0A8V2)
Sequence (P0A8V2 whole entry, looked up): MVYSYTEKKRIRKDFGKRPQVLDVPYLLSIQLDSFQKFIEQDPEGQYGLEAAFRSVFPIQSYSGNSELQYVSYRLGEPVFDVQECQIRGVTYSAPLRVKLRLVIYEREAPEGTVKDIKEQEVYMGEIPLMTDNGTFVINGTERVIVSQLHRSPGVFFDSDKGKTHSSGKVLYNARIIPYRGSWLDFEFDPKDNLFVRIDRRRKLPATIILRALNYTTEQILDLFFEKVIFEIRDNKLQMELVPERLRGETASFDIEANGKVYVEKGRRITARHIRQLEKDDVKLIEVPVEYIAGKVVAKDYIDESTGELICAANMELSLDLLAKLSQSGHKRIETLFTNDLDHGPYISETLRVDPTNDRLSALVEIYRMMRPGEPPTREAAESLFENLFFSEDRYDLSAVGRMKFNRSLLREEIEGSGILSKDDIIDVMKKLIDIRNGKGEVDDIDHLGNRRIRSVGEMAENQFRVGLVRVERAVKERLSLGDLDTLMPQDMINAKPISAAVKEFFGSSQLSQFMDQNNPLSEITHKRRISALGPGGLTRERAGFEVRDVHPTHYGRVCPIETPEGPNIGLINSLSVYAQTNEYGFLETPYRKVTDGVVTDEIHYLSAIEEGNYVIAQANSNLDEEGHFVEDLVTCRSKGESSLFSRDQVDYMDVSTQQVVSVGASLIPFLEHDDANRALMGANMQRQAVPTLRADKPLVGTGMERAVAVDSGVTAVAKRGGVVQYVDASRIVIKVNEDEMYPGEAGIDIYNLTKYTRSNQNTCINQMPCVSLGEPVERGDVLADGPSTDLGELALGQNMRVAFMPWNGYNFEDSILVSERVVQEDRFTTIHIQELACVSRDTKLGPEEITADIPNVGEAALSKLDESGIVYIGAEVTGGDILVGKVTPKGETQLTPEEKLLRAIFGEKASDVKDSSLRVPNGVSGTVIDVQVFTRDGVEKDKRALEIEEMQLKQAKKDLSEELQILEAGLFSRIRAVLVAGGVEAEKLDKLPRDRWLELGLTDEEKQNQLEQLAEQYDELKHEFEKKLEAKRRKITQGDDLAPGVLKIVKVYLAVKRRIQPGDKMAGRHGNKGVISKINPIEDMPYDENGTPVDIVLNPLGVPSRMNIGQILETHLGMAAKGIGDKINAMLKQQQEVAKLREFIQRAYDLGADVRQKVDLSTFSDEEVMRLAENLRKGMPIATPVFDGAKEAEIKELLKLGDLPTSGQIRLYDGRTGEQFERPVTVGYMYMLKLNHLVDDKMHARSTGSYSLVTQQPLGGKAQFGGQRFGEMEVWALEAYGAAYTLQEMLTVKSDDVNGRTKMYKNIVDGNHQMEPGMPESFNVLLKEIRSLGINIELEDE
Assay: Percent inhibition at a concentration of 100 ug/mL of RNA polymerase isolated from Escherichia coli K12 (Sigma)
Hi! Could you send only the number? It should be in %, unit omitted.

{"smiles data": "CC(/C=C/C(O)=C1\\C(=O)CNC1=O)=C\\c1ccc2ccccc2c1", "inhibition / %": 13.1}
{"smiles data": "CC(/C=C/C(O)=C1\\C(=O)CNC1=O)=C\\c1ccccc1", "inhibition / %": 4.5}

*Q* Look at this molecule and give its reported inhibition. "CCCCCC(/C=C/C(O)=C1\C(=O)CN(C)C1=O)=C\c1ccccc1"
*A* 5.6

====

# log10 of MIC per entry
System: Bacteroides fragilis
Test: Minimum inhibitory concentration against Bacteroides fragilis ATCC 25285
Assay type: functional
// stored as log10 of MIC expressed in µg/mL

{"molecule": "O=C(/C=C/C(Br)=C/c1ccccc1)C1=C(O)CNC1=O", "result value": 0.90}

Now for a further molecule.
*Q* Look at this molecule and give its reported log10 of MIC. "CC(/C=C/C(=O)C1=C(O)CN(C)C1=O)=C\CC1CCCCC1"
*A* 0.90

====

Tested on: Clostridioides difficile
Experiment: Minimum inhibitory concentration against Clostridium difficile ATCC 9689
Type: functional
result type: MIC (µg/mL)
Hi! Could you send only the number? It should be in µg/mL, unit omitted.

Some solved entries appear below for comparison.
{"compound": "CC(/C=C/C(=O)C1=C(O)CN(C)C1=O)=C\\c1ccnc2ccccc12", "MIC [µg/mL]": 8}
{"compound": "CC(/C=C/C(=O)C1=C(O)CN(C)C1=O)=C\\C1CCCCC1", "MIC [µg/mL]": 4}
{"compound": "CCC[C@@H]1C[C@@H](C(=O)N[C@@H]([C@H]2O[C@H](SC)[C@H](O)[C@@H](O)[C@H]2O)[C@H](C)Cl)N(C)C1", "MIC [µg/mL]": 1}

*Q* Look at this compound and give its reported MIC. CC(/C=C/C(O)=C1\C(=O)C2CCCN2C1=O)=C\c1ccc2ccccc2c1 (configuration not stated)
*A* 16

*Q* Check "CC(/C=C/C(=O)C1=C(O)CN(C)C1=O)=C\CC1CCCCC1" too.
*A* 2

====

Tested on: Bacteroides fragilis
Assay: Minimum inhibitory concentration against Bacteroides fragilis ATCC 25285
Type: functional
result type: MIC (µg/mL)
Hi! Could you send only the number? It should be in µg/mL, unit omitted.

Some solved entries appear below for comparison.
{"compound": "CC(/C=C/C(O)=C1\\C(=O)CNC1=O)=C\\c1ccccc1", "system": "Bacteroides fragilis", "unit label": "µg/mL", "MIC": 4}
{"compound": "CC(/C=C/C(=O)C1=C(O)CN(C)C1=O)=C\\c1ccc(F)c2ccccc12", "system": "Bacteroides fragilis", "unit label": "µg/mL", "MIC": 2}
{"compound": "CC(/C=C/C(=O)C1=C(O)CN(C)C1=O)=C\\c1ccnc2ccccc12", "system": "Bacteroides fragilis", "unit label": "µg/mL", "MIC": 16}
{"compound": "COc1ccc(/C=C(C)/C=C/C(O)=C2\\C(=O)CN(C)C2=O)c2ccccc12", "system": "Bacteroides fragilis", "unit label": "µg/mL", "MIC": 62}
{"compound": "CC(/C=C/C(=O)C1=C(O)CN(C)C1=O)=C\\C1CCc2ccccc2C1 (stereo not given)", "system": "Bacteroides fragilis", "unit label": "µg/mL", "MIC": 125}
{"compound": "CN1CC(=O)\\C(=C(O)/C=C/C=C/c2ccc(N(C)C)cc2)C1=O", "system": "Bacteroides fragilis", "unit label": "µg/mL", "MIC": 125}
{"compound": "CN1CC(O)=C(C(=O)/C=C/C(Cl)=C/c2ccccc2)C1=O", "system": "Bacteroides fragilis", "unit label": "µg/mL", "MIC": 16}
{"compound": "COCCOCc1ccc2ccccc2c1/C=C(C)/C=C/C(O)=C1\\C(=O)CN(C)C1=O", "system": "Bacteroides fragilis", "unit label": "µg/mL", "MIC": 125}

*Q* Return MIC measured with Bacteroides fragilis given this compound: "O=C(/C=C/C(Cl)=C/c1ccccc1)C1=C(O)CNC1=O"
*A* 8

*Q* Check CC(/C=C/C(O)=C1\C(=O)CN(C)C1=O)=C\C(C)C1CCCCC1 (stereo not given) too.
*A* 8

*Q* Check "CC(/C=C/C(=O)C1=C(O)CN(C)C1=O)=C\C1CCCCC1" too.
*A* 8

*Q* Check "CCCCCCCCCCC/C=C(C)/C=C/C(O)=C1\C(=O)CN(C)C1=O" too.
*A* 125

*Q* Check "CN1CC(O)=C(C(=O)/C=C/C=C/c2ccccc2)C1=O" too.
*A* 62

*Q* Check "CC(/C=C/C(=O)C1=C(O)CN(C)C1=O)=C\c1ccccn1" too.
*A* 62

*Q* Check "CN1CC(O)=C(C(=O)/C=C/C(Br)=C/c2ccccc2)C1=O" too.
*A* 16

*Q* Check CC(/C=C/C(O)=C1\C(=O)CN(C)C1=O)=C\C(C)c1ccccc1 (stereo not given) too.
*A* 8

*Q* Check CC(/C=C/C(O)=C1\C(=O)C2CCCN2C1=O)=C\c1ccc2ccccc2c1 (stereo not given) too.
*A* 31

*Q* Check "CC(/C=C/C(=O)C1=C(O)CN(C)C1=O)=C\c1ccc(-c2ccccc2)cc1" too.
*A* 8

*Q* Check "CC(/C=C/C(=O)C1=C(O)CN(C)C1=O)=C\c1ccccc1" too.
*A* 4

*Q* Check CC(/C=C/C(=O)C1=C(O)CN(C)C1=O)=C\C1CCCCO1 (stereo not given) too.
*A* 125

*Q* Check "CCCCCC(/C=C/C(O)=C1\C(=O)CN(C)C1=O)=C\c1ccccc1" too.
*A* 62

*Q* Check "CC(/C=C/C(=O)C1=C(O)CN(C)C1=O)=C\c1c(O)ccc2ccccc12" too.
*A* 31

====

Test system: Clostridioides difficile
Test: Minimum inhibitory concentration against Clostridium difficile ATCC 9689
Type: functional
Mark YES only for MIC values smaller than 8 mg/L; exact matches and larger values are NO.

Reference set, count: 5
{"compound": "CC(/C=C/C(=O)C1=C(O)CN(C)C1=O)=C\\c1ccc(-c2ccccc2)cc1", "answer label": "YES"}
{"compound": "CC(/C=C/C(O)=C1\\C(=O)CNC1=O)=C\\c1ccc2ccccc2c1", "answer label": "YES"}
{"compound": "CC(/C=C/C(O)=C1\\C(=O)CN(C)C1=O)=C\\C(C)c1ccccc1 (configuration not stated)", "answer label": "NO"}
{"compound": "CC(/C=C/C(=O)C1=C(O)CN(C)C1=O)=C\\c1c(O)ccc2ccccc12", "answer label": "NO"}
{"compound": "CC(/C=C/C(O)=C1\\C(=O)CNC1=O)=C\\c1ccccc1", "answer label": "YES"}

*Q* Answer whether the compound "O=C(/C=C/C=C/c1ccccc1)C1=C(O)CNC1=O" has MIC strictly less than 8 mg/L
*A* NO

*Q* Check "CCCCCC(/C=C/C(O)=C1\C(=O)CN(C)C1=O)=C\c1ccccc1" too.
*A* NO

*Q* Check "CN1CC(O)=C(C(=O)/C=C/C=C/c2ccccc2)C1=O" too.
*A* NO

====

System: Bacteroides fragilis
Assay: Minimum inhibitory concentration against Bacteroides fragilis ATCC 25285
Assay type: functional
result type: MIC

{"smiles data": "CC(/C=C/C(=O)C1=C(O)CN(C)C1=O)=C\\c1ccc2ccccc2c1", "result type": "MIC", "result value": "< 0.5 µg/mL"}

*Q* Look at this molecule and give its reported MIC. "CC(/C=C/C(=O)C1=C(O)CN(C)C1=O)=C\c1cccc2ccccc12"
*A* < 0.5 µg/mL

*Q* Check "CC(/C=C/C(O)=C1\C(=O)CNC1=O)=C\c1ccc2ccccc2c1" too.
*A* ≤ 0.5 µg/mL
